# tgt: K-Ras G12C (Homo sapiens (Human), UniProt P01116+P62937, G12C)
# Sequence (P01116-2 other isoform, or with tags, fused parts or gaps G12C): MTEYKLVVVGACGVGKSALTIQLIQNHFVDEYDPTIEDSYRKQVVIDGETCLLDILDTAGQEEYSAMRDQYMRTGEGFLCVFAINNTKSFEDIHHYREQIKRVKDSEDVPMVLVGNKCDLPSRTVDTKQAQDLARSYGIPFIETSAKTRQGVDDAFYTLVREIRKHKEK
# Sequence (P62937 whole entry): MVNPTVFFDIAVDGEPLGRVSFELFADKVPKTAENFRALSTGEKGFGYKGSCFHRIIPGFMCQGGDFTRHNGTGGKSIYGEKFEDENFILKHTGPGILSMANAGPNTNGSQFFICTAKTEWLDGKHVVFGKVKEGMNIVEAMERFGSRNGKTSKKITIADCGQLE
# assay summary: Ras-Raf (BRAF RBD) disruption / FRET / MOA assay, KRAS G12C
# Type: biochemical
# condition context: KRAS G12C; Ras-Raf disruption/FRET/MOA assay; read-out: IC50* KRAS G12C FRET data
parameter: IC50

compound	IC50
C=CC(=O)N1CCC2(CC1)OCN([C@H](C(=O)N[C@H]1Cc3cccc(c3)-c3ccc4c(c3)c(c(-c3cccnc3[C@H](C)OC)n4CC)CC(C)(C)COC(=O)[C@@H]3CCCN(N3)C1=O)C(C)C)C2=O (atropisomer, axis not shown) [Example A457]	0.1 to 1 µM
C=CC(=O)N1CCC[C@@H]2CN(C(=O)N(C)[C@H](C(=O)N[C@H]3Cc4nc(cs4)-c4ccc5c(c4)c(c(-c4cccnc4[C@H](C)OC)n5CC)CC(C)(C)COC(=O)[C@@H]4CCCN(N4)C3=O)C(C)C)C[C@@H]21 (atropisomer, axis not shown) [Example A619]	0.1 to 1 µM
C=CC(=O)N1CC[C@H](C(=O)N(C)[C@H](C(=O)N[C@H]2CN3CCC=C(C3)c3ccc4c(c3)c(c(-c3cccnc3[C@H](C)OC)n4CC)CC(C)(C)COC(=O)[C@@H]3CCCN(N3)C2=O)C(C)C)C1 (atropisomer, axis not shown) [Example A716]	0.1 to 1 µM
C=CC(=O)N1CC[C@H](C(=O)N(C)[C@H](C(=O)N[C@H]2Cc3cc(C)cc(c3)-c3ccc4c(c3)c(c(-c3cccnc3[C@H](C)OC)n4CC)CC(C)(C)COC(=O)[C@@H]3CCCN(N3)C2=O)C(C)C)C1 (atropisomer, axis not shown) [Example A498]	0.1 to 1 µM
CCn1c(-c2cccnc2[C@H](C)OC)c2c3cc(ccc31)-c1nc(co1)C[C@H](NC(=O)[C@@H](COC1CN(C(=O)C#CC(C)(C)N(C)C)C1)C(C)C)C(=O)N1CCC[C@H](N1)C(=O)OCC(C)(C)C2 (atropisomer, axis not shown) [Example A675]	0.01 to 0.1 µM
CO[C@@H](C)c1ncccc1-c1c2c3cc(ccc3n1CC(F)(F)F)N1CCO[C@@H](C[C@H](NC(=O)[C@H](C(C)C)N3CC[C@@]4(CCN(C(=O)C#CC(C)(C)N(C)C)C4)C3=O)C(=O)N3CCC[C@H](N3)C(=O)OCC(C)(C)C2)C1 (atropisomer, axis not shown) [Example A628]	< 0.01 µM

Record IC50 per entry; entries follow.
1. C=C(OC)C(=O)N1CC(N(C)C(=O)N(C)[C@H](C(=O)N[C@H]2Cc3nc(cs3)-c3ccc4c(c3)c(c(-c3cccnc3[C@H](C)OC)n4CC)CC(C)(C)COC(=O)[C@@H]3CCCN(N3)C2=O)C(C)C)C1 (atropisomer, axis not shown) [Example A713]
2. CCn1c(-c2cccnc2COC)c2c3cc(ccc31)-c1cc(O)cc(c1)C[C@H](NC(=O)[C@H](C(C)C)N(C)C(=O)[C@H]1CCN(C(=O)/C=C/CN(C)C)C1)C(=O)N1CCC[C@H](N1)C(=O)OCC(C)(C)C2 [Example A054]

0.1 to 1 µM
0.01 to 0.1 µM

====

I'd appreciate it if you could supply IC50 values for the items below.
# tgt: K-Ras G12C (Homo sapiens (Human), UniProt P01116+P62937, G12C)
# assay summary: Ras-Raf (BRAF RBD) disruption / FRET / MOA assay, KRAS G12C
# Assay type: biochemical
# condition context: KRAS G12C; Ras-Raf disruption/FRET/MOA assay; read-out: IC50* KRAS G12C FRET data

compound	data value
CCn1c(-c2cccnc2[C@H](C)OC)c2c3cc(ccc31)-c1csc(n1)C[C@H](NC(=O)[C@H](C)N(C)C(=O)[C@H]1CCN(C(=O)C#CC(C)(C)N3CCC3)C1)C(=O)N1CCC[C@H](N1)C(=O)OCC(C)(C)C2 (atropisomer, axis not shown) [Example A489]	10 to 100 nM

Attention now turns to another entry.
# query: IC50 of entry C=CC(=O)N1CC[C@H](C(=O)N(C)[C@H](C(=O)N[C@H]2Cc3cc(O)cc(c3)-c3ccc4c(c3)c(c(-c3cn(C)nc3[C@H](C)OC)n4CC)CC(C)(C)COC(=O)[C@@H]3CCCN(N3)C2=O)C(C)C)C1 [Example A154] 10 to 100 nM
